target: Nucleic Acid; experiment: Dissociation constant towards 16S rRNA construct B; type: nucleic-acid assay
pKd: −log10 of the molar value.
observedProperty: pKd

NCC1O[C@H](O[C@H]2[C@@H](O)[C@H](O[C@H]3[C@H](O)[C@@H](N)C[C@@H](N)[C@@H]3O[C@H]3O[C@H](CN)[C@@H](O)[C@H](O)[C@H]3N)O[C@@H]2CSCCOCCSSCCOCCSC[C@H]2O[C@@H](O[C@H]3[C@H](O)[C@@H](N)C[C@@H](N)[C@@H]3O[C@H]3O[C@H](CN)[C@@H](O)[C@H](O)[C@H]3N)[C@H](O)[C@@H]2O[C@@H]2OC(CN)[C@H](O)[C@@H](O)[C@@H]2N)[C@H](N)[C@@H](O)[C@@H]1O (stereo not given in full) : 7.70
NC[C@H]1O[C@H](O[C@H]2[C@H](O)[C@@H](O[C@H]3O[C@H](CSCCOCCSSCCOCCSC[C@H]4O[C@H](O[C@@H]5[C@@H](O)[C@H](O[C@H]6O[C@H](CN)[C@@H](O)C[C@H]6N)[C@@H](N)C[C@H]5N)[C@H](O)[C@@H](N)[C@@H]4O)[C@@H](O)[C@H](N)[C@H]3O)[C@H](N)C[C@@H]2N)[C@H](N)C[C@@H]1O [Tobramycin-Tobramycin] : 5.74
NCC1O[C@H](O[C@H]2[C@@H](O)[C@H](O[C@H]3[C@H](O)[C@@H](N)C[C@@H](N)[C@@H]3O[C@H]3O[C@H](CN)[C@@H](O)[C@H](O)[C@H]3N)O[C@@H]2CSCCOCCSSCCOCCSC[C@H]2O[C@H](O[C@@H]3[C@@H](O)[C@H](O[C@H]4O[C@H](CN)[C@@H](O)C[C@H]4N)[C@@H](N)C[C@H]3N)[C@H](O)[C@@H](N)[C@@H]2O)[C@H](N)[C@@H](O)[C@@H]1O (stereo not given in full) : 6.54

[I] NC[C@@H]1O[C@H](O[C@H]2[C@@H](O)[C@H](O[C@@H]3[C@@H](O)[C@H](N)C[C@H](N)[C@H]3O[C@H]3O[C@H](CN)[C@@H](O)[C@H](O)[C@H]3N)O[C@@H]2CO)[C@H](N)[C@@H](O)[C@@H]1O [FRAMYCETIN]
[II] NC[C@H]1O[C@H](O[C@H]2[C@H](O)[C@@H](O[C@H]3O[C@H](CO)[C@@H](O)[C@H](N)[C@H]3O)[C@H](N)C[C@@H]2N)[C@H](N)C[C@@H]1O [TOBRAMYCIN]
In the pair I and II , the larger recorded pKd belongs to which? Lab log: write the label of the selected item as the result. I

Ref: ChEMBL document CHEMBL1133237
